Hey, just so you know, these numbers are from patent US11858910B2.

Assay: Pharmacokinetic evaluation after intravenous or gavage administration to dogs
Format: in vivo, Beagle dogs
Settings: Beagle, dog, in vivo, iv, 0.5 mg/kg
Experimental: The inventors had evaluated the pharmacokinetics of the compounds of the invention in rats and dogs. Wherein animal information was detailed in Table 1. The compound was administered to the animal subjects in the form of 5% DMSO+60% PEG400+35% Saline solution or 10% DMSO+10% Kolliphor HS15+30% PEG400+50% Saline solution. The animals were fasted for 12 hours before administration, but drinking water freely. […]
measured_endpoint: Tmax

[[record]]
molecule = "CCN1CCC(=C(F)c2cccc(NC(=O)c3c(F)cc(F)cc3F)n2)CC1 [Example 19]"
measured_endpoint = "Tmax"
measured_result = "4.98 min"


---

Assay: Pharmacokinetic evaluation after intravenous or gavage administration to dogs
Assay type: in vivo, Beagle dogs
Conditions: Beagle, dog, plasma, iv; dogs, i.v group, 1 mg/kg; read-out: MRTINF
measured_endpoint: MRT inf (h)

[[record]]
substance_smiles = "CN1CCC(=C(F)c2cccc(NC(=O)c3c(F)cc(F)cc3F)n2)CC1"
measured_endpoint = "MRT inf"
units_symbol = "h"
measured_result = 4.11


---

Test: Pharmacokinetic evaluation after intravenous or gavage administration to rats
Format: in vivo, SD rats
Conditions: SD, rat, in vivo, iv, 1 mg/kg
measured_endpoint: AUC(0-inf) (ng·h/mL)

[[record]]
substance_smiles = "CCN1CCC(=C(F)c2cccc(NC(=O)c3c(F)cc(F)cc3F)n2)CC1"
measured_endpoint = "AUC(0-inf)"
units_symbol = "ng·h/mL"
measured_result = 259


---

Assay: Pharmacokinetic evaluation after intravenous or gavage administration to rats
Format: in vivo, SD rats
Settings: SD, rat, plasma, po; rats, i.g group, 5 mg/kg; read-out: AUCINF
measured_endpoint: AUC(0-inf)

[[record]]
compound = "CN1CCC(=C(F)c2cccc(NC(=O)c3c(F)cc(F)cc3F)n2)CC1 [Example 12]"
measured_endpoint = "AUC(0-inf)"
measured_result = "0.354 µg·h/mL"


---

Experiment: Pharmacokinetic evaluation after intravenous or gavage administration to rats
Format: in vivo, SD rats
Conditions: SD, rat, plasma, iv; rats, i.v group, 1 mg/kg; read-out: Cl
measured_endpoint: clearance (mL/min/kg)

[[record]]
substance_smiles = "CN1CCC(=C(F)c2cccc(NC(=O)c3c(F)cc(F)cc3F)n2)CC1"
measured_result = 146


---

Assay: Pharmacokinetic evaluation after intravenous or gavage administration to dogs
Format: in vivo, Beagle dogs
Details: Beagle, dog, in vivo, iv, 0.5 mg/kg
measured_endpoint: clearance (mL/min/kg)

[[record]]
substance_smiles = "CCN1CCC(=C(F)c2cccc(NC(=O)c3c(F)cc(F)cc3F)n2)CC1"
measured_endpoint = "clearance"
units_symbol = "mL/min/kg"
measured_result = 13.1


---

Target: human 5-HT1F receptor (Homo sapiens)
Construct: expressed in transfected cells; host or cells: CHO-K1
Sequence (P30939 whole entry): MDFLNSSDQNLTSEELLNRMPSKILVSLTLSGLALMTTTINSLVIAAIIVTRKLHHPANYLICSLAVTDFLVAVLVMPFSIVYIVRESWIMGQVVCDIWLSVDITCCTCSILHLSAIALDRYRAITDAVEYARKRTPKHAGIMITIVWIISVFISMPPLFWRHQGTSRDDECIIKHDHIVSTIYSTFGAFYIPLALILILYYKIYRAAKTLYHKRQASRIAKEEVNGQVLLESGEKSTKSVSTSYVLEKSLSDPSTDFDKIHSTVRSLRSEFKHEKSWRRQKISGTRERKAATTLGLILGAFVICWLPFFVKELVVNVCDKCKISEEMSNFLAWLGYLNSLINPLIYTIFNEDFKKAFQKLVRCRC
Test: Activating effect on human 5-HT1F receptor transfected CHO-K1 cells (HitHunter cAMP detection kit)
Format: cell-based
Conditions: CHO-K1 cells, forskolin 15 μM, cAMP; read-out: EC50
pEC50: −log10 of the molar value.
measured_endpoint: pEC50

[[record]]
substance_smiles = "CCN1CCC(=C(F)c2cccc(NC(=O)c3c(F)cc(F)cc3F)n2)CC1"
experimental_system = "human 5-HT1F receptor (Homo sapiens)"
measured_result = 8.17

[[record]]
substance_smiles = "CN1CCC(=C(F)c2cccc(NC(=O)c3ccc(F)cc3F)n2)CC1"
experimental_system = "human 5-HT1F receptor (Homo sapiens)"
measured_result = 8.52

[[record]]
substance_smiles = "CN1CCC(=Cc2cccc(NC(=O)c3ccc(F)cc3F)n2)CC1"
experimental_system = "human 5-HT1F receptor (Homo sapiens)"
measured_result = 8.23

[[record]]
substance_smiles = "CN1CCC(=Cc2cccc(NC(=O)c3c(F)cc(F)cc3F)n2)CC1"
experimental_system = "human 5-HT1F receptor (Homo sapiens)"
measured_result = 8.72


---

Test: Pharmacokinetic evaluation after intravenous or gavage administration to rats
Assay type: in vivo, SD rats
Conditions: SD, rat, in vivo, po, 5 mg/kg
measured_endpoint: AUC(0-inf) (ng·h/mL)

[[record]]
substance_smiles = "CCN1CCC(=C(F)c2cccc(NC(=O)c3c(F)cc(F)cc3F)n2)CC1"
units_symbol = "ng·h/mL"
measured_result = 1320


---

Assay: Pharmacokinetic evaluation after intravenous or gavage administration to dogs
Format: in vivo, Beagle dogs
Settings: Beagle, dog, plasma, po; dogs, i.g group, 5 mg/kg; read-out: T1/2 (converted)
measured_endpoint: half-life (h)

[[record]]
substance_smiles = "CN1CCC(=C(F)c2cccc(NC(=O)c3c(F)cc(F)cc3F)n2)CC1"
units_symbol = "h"
measured_result = 4.28


---

Assay: Pharmacokinetic evaluation after intravenous or gavage administration to dogs
Format: in vivo, Beagle dogs
Settings: Beagle, dog, in vivo, iv, 0.5 mg/kg
Description: The inventors had evaluated the pharmacokinetics of the compounds of the invention in rats and dogs. Wherein animal information was detailed in Table 1. The compound was administered to the animal subjects in the form of 5% DMSO+60% PEG400+35% Saline solution or 10% DMSO+10% Kolliphor HS15+30% PEG400+50% Saline solution. The animals were fasted for 12 hours before administration, but drinking water freely. […]
measured_endpoint: MRT inf (h)

[[record]]
substance_smiles = "CCN1CCC(=C(F)c2cccc(NC(=O)c3c(F)cc(F)cc3F)n2)CC1"
measured_result = 1.39


---

Experiment: Pharmacokinetic evaluation after intravenous or gavage administration to dogs
Type: in vivo, Beagle dogs
Details: Beagle, dog, plasma, po; dogs, i.g group, 5 mg/kg; read-out: Cmax
Description: The inventors had evaluated the pharmacokinetics of the compounds of the invention in rats and dogs. Wherein animal information was detailed in Table 1. The compound was administered to the animal subjects in the form of 5% DMSO+60% PEG400+35% Saline solution or 10% DMSO+10% Kolliphor HS15+30% PEG400+50% Saline solution. The animals were fasted for 12 hours before administration, but drinking water freely. […]
measured_endpoint: Cmax (ng/mL)

[[record]]
substance_smiles = "CN1CCC(=C(F)c2cccc(NC(=O)c3c(F)cc(F)cc3F)n2)CC1"
measured_endpoint = "Cmax"
measured_result = 82.8


---

Test: Pharmacokinetic evaluation after intravenous or gavage administration to dogs
Type: in vivo, Beagle dogs
Details: Beagle, dog, plasma, iv; dogs, i.v group, 1 mg/kg; read-out: T1/2 (converted)
Experimental: The inventors had evaluated the pharmacokinetics of the compounds of the invention in rats and dogs. Wherein animal information was detailed in Table 1. The compound was administered to the animal subjects in the form of 5% DMSO+60% PEG400+35% Saline solution or 10% DMSO+10% Kolliphor HS15+30% PEG400+50% Saline solution. The animals were fasted for 12 hours before administration, but drinking water freely. […]
measured_endpoint: half-life (h)

[[record]]
substance_smiles = "CN1CCC(=C(F)c2cccc(NC(=O)c3c(F)cc(F)cc3F)n2)CC1"
measured_endpoint = "half-life"
measured_result = 3.52


---

Test: Pharmacokinetic evaluation after intravenous or gavage administration to dogs
Assay type: in vivo, Beagle dogs
Settings: Beagle, dog, plasma, iv; dogs, i.v group, 1 mg/kg; read-out: AUClast
measured_endpoint: AUC(0-t) (ng·h/mL)

[[record]]
molecule = "CN1CCC(=C(F)c2cccc(NC(=O)c3c(F)cc(F)cc3F)n2)CC1 [Example 12]"
measured_endpoint = "AUC(0-t)"
units_symbol = "ng·h/mL"
measured_result = 652


---

Assay: Pharmacokinetic evaluation after intravenous or gavage administration to dogs
Assay type: in vivo, Beagle dogs
Details: beagle, dog, in vivo, po, 2.5 mg/kg
measured_endpoint: AUC(0-inf) (ng·h/mL)

[[record]]
compound = "CCN1CCC(=C(F)c2cccc(NC(=O)c3c(F)cc(F)cc3F)n2)CC1 [Example 19]"
measured_endpoint = "AUC(0-inf)"
measured_result = 392


---

Experiment: Pharmacokinetic evaluation after intravenous or gavage administration to rats
Format: in vivo, SD rats
Settings: SD, rat, plasma, iv; rats, i.v group, 1 mg/kg; read-out: AUCINF
measured_endpoint: AUC(0-inf) (ng·h/mL)

[[record]]
substance_smiles = "CN1CCC(=C(F)c2cccc(NC(=O)c3c(F)cc(F)cc3F)n2)CC1"
measured_endpoint = "AUC(0-inf)"
units_symbol = "ng·h/mL"
measured_result = 114


---

Assay: Pharmacokinetic evaluation after intravenous or gavage administration to rats
Assay type: in vivo, SD rats
Conditions: SD, rat, plasma, iv; rats, i.v group, 1 mg/kg; read-out: MRTINF
Method: The inventors had evaluated the pharmacokinetics of the compounds of the invention in rats and dogs. Wherein animal information was detailed in Table 1. The compound was administered to the animal subjects in the form of 5% DMSO+60% PEG400+35% Saline solution or 10% DMSO+10% Kolliphor HS15+30% PEG400+50% Saline solution. The animals were fasted for 12 hours before administration, but drinking water freely. […]
measured_endpoint: MRT inf

[[record]]
compound = "CN1CCC(=C(F)c2cccc(NC(=O)c3c(F)cc(F)cc3F)n2)CC1 [Example 12]"
measured_endpoint = "MRT inf"
measured_result = "1.66 h"

